- Test system: SH-SY5Y
- Assay overview: Cytotoxicity against human SH-SY5Y cells assessed as reduction in cell viability incubated for 72 hrs by MTT assay
- Type: cell-based
So basically: is IC50 under 80 µM? Then True. Not under? Then False.

These recorded examples may help you get a feel for the data.
| Compound | Group label |
| --- | --- |
| CCCCCc1cc(O)c2c(c1)OC(C)(C)[C@@H]1CCC(C)=C[C@@H]21 [DRONABINOL] | True |
| C=C(C)[C@@H]1CCC(C)=C[C@H]1c1c(O)cc(CCC)cc1O [CANNABIDIVARIN] | True |
| CCCc1cc(O)c2c(c1)OC(C)(C)[C@@H]1CCC(C)=C[C@@H]21 [TETRAHYDROCANNABIVARIN] | False |
| C=C(C)[C@@H]1CC[C@H]2O[C@H]2[C@H]1c1c(O)cc(CCCCC)cc1O | True |
| CCCCCc1cc(O)c2c(c1)OC(C)(C)c1ccc(C)cc1-2 [CANNABINOL] | False |
| CCCCCc1cc(O)c2c(c1)OC(C)(CCC=C(C)C)C=C2 (configuration not stated) [CANNABICHROMENE] | True |

Then there is this compound:
A record lists C=C(C)[C@@H]1CCC(C)=C[C@H]1c1c(O)cc(CCCCC)cc1O [CANNABIDIOL] . Is its IC50 below 80 µM?
True

====

- Test system: MCF7
- Assay overview: Cytotoxicity against human MCF7 cells assessed as reduction in cell viability incubated for 24 to 72 hrs by MTT assay
- Format: cell-based
Endpoint name: Activity

Record excerpt, results attached:
| Molecule | Target of assay | Activity |
| --- | --- | --- |
| CCCCCc1cc(O)c2c(c1)OC(C)(C)c1ccc(C)cc1-2 | MCF7 | Dose-dependent effect |
| C=C(C)[C@@H]1CC[C@H]2O[C@H]2[C@H]1c1c(O)cc(CCCCC)cc1O | MCF7 | Dose-dependent effect |
| C=C(C)[C@@H]1CCC(C)=C[C@H]1c1c(O)cc(CCCCC)cc1O | MCF7 | Dose-dependent effect |
| CCCCCc1cc(O)c2c(c1)OC(C)(C)[C@@H]1CCC(C)=C[C@@H]21 | MCF7 | Dose-dependent effect |
| CCCCCc1cc(O)c2c(c1)OC(C)(CCC=C(C)C)C=C2 (configuration not stated) | MCF7 | Dose-dependent effect |

CCCc1cc(O)c2c(c1)OC(C)(C)[C@@H]1CCC(C)=C[C@@H]21 [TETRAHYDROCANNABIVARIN] has a reported Activity of Dose-dependent effect

`C=C(C)[C@@H]1CCC(C)=C[C@H]1c1c(O)cc(CCC)cc1O` has a reported Activity of Dose-dependent effect

====

- System: HepG2
- Assay overview: Cytotoxicity against human HepG2 cells assessed as reduction in cell viability incubated for 72 hrs by MTT assay
- Assay type: cell-based
- Reported conditions: HepG2, 72 h
IC50 reference
Write the number in µM without appending the unit.

Record excerpt, results attached:
| Compound | Target of assay | Endpoint name | Observed value |
| --- | --- | --- | --- |
| CCCCCc1cc(O)c2c(c1)OC(C)(C)c1ccc(C)cc1-2 | HepG2 | IC50 | 74 |
| CCCCCc1cc(O)c2c(c1)OC(C)(CCC=C(C)C)C=C2 (stereo not drawn) | HepG2 | IC50 | 60 |
| C=C(C)[C@@H]1CCC(C)=C[C@H]1c1c(O)cc(CCCCC)cc1O | HepG2 | IC50 | 42.8 |

`CCCCCc1cc(O)c2c(c1)OC(C)(C)[C@@H]1CCC(C)=C[C@@H]21` has a reported IC50 of 59

`C=C(C)[C@@H]1CC[C@H]2O[C@H]2[C@H]1c1c(O)cc(CCCCC)cc1O` has a reported IC50 of 53

`C=C(C)[C@@H]1CCC(C)=C[C@H]1c1c(O)cc(CCC)cc1O` has a reported IC50 of 64

CCCc1cc(O)c2c(c1)OC(C)(C)[C@@H]1CCC(C)=C[C@@H]21 [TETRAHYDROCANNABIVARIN] has a reported IC50 of 75

`CC[C@@H](C(=O)[C@@H](C)[C@@H](O)[C@H](C)[C@@H]1O[C@@H]([C@@H](CC)C(=O)O)CC[C@@H]1C)[C@H]1O[C@]2(C=C[C@@H](O)[C@]3(CC[C@@](C)([C@H]4CC[C@](O)(CC)[C@H](C)O4)O3)O2)[C@H](C)C[C@@H]1C` has a reported IC50 of 24.5
